experiment: clinical; settings: human, in vivo, 1200 mg, Guaifenesin Tmax
Readout type: Tmax (min)
Note: unit min is implicit; provide only the numeric part.

State its Tmax: COc1ccccc1OCC(O)CO (stereo not shown) 45

###

Assay: Example 16: interaction potential, Mucinex and Sudafed 12 Hour alone or together, 3-way crossover
Assay type: in vivo, human
Conditions: human, in vivo, po, 120 mg, Pseudoephedrine Tmax, mean; Treatment C: 120 mg pseudoephedrine HCl along with 1200 mg guaifenesin (Sudafed 12 Hour + Mucinex), overnight fast
Source text: In another study drug interaction potential for combination drugs was examined.
Where a name gives a salt, the structure may show the parent alone.
Readout type: Tmax (h)
Express the result in h but write the number alone.

Supply reported Tmax belonging to this compound: CN[C@@H](C)[C@@H](O)c1ccccc1 [Pseudoephedrine, Pseudoephedrine hydrochloride] 5.75

###

Assay: clinical
Type: in vivo, human
Conditions: human, in vivo, 1200 mg, Guaifenesin Cmax
Source text: In another study drug interaction potential for combination drugs was examined.
Readout type: Cmax (ng/mL)
Give the quantity in ng/mL, number only.

Find the measured Cmax of COc1ccccc1OCC(O)CO (stereo not shown) and report it. 1700

###

test: Example 16: interaction potential, Mucinex and Sudafed 12 Hour alone or together, 3-way crossover; type: in vivo, human; settings: human, in vivo, po, 120 mg, Pseudoephedrine Cmax, mean; Treatment B: 120 mg pseudoephedrine HCl alone (Sudafed 12 Hour), overnight fast
Where a name gives a salt, the structure may show the parent alone.
Readout type: Cmax (ng/mL)
Express your answer in ng/mL, writing the number without its unit.

State, in one line, measured Cmax of CN[C@@H](C)[C@@H](O)c1ccccc1 [Pseudoephedrine, Pseudoephedrine hydrochloride] 296

###

test: Example 16: interaction potential, Mucinex and Sudafed 12 Hour alone or together, 3-way crossover; assay type: in vivo, human; settings: human, in vivo, po, 120 mg, Pseudoephedrine AUC0-t, median; Treatment C: 120 mg pseudoephedrine HCl along with 1200 mg guaifenesin (Sudafed 12 Hour + Mucinex), overnight fast
Structures can show the parent of a compound that is named as a salt.
Readout type: AUC(0-t) (ng·h/mL)
Give just the number in ng·h/mL; leave the unit off.

Please look at this compound and report its AUC(0-t): CN[C@@H](C)[C@@H](O)c1ccccc1 [Pseudoephedrine, Pseudoephedrine hydrochloride] 3930

###

experiment: clinical; conditions: human, in vivo, 1200 mg, Guaifenesin Clearance
Readout type: clearance (mL/min)
Respond with the bare value in mL/min.

Provide only the value of recorded clearance for COc1ccccc1OCC(O)CO (stereo not shown) 2270

###

test: Example 16: interaction potential, Mucinex and Sudafed 12 Hour alone or together, 3-way crossover; format: in vivo, human; settings: human, in vivo, po, 120 mg, Pseudoephedrine Half-life, mean; Treatment C: 120 mg pseudoephedrine HCl along with 1200 mg guaifenesin (Sudafed 12 Hour + Mucinex), overnight fast
Structures can show the parent of a compound that is named as a salt.
Readout type: half-life (h)
Only the number, expressed in h, is required.

Look up half-life of CN[C@@H](C)[C@@H](O)c1ccccc1 [Pseudoephedrine, Pseudoephedrine hydrochloride] and report it. 6.04

###

assay: Example 16: interaction potential, Mucinex and Sudafed 12 Hour alone or together, 3-way crossover; type: in vivo, human; details: human, in vivo, po, 120 mg, Pseudoephedrine Cmax, median; Treatment B: 120 mg pseudoephedrine HCl alone (Sudafed 12 Hour), overnight fast
Counter-ions that a name gives are not always drawn.
Readout type: Cmax (ng/mL)
# output: bare number, implied unit ng/mL

Complete the entry with Cmax for CN[C@@H](C)[C@@H](O)c1ccccc1 [Pseudoephedrine, Pseudoephedrine hydrochloride] 298

###

assay: Example 16: interaction potential, Mucinex and Sudafed 12 Hour alone or together, 3-way crossover; assay type: in vivo, human; conditions: human, in vivo, po, 120 mg, Pseudoephedrine AUCinf, median; Treatment B: 120 mg pseudoephedrine HCl alone (Sudafed 12 Hour), overnight fast
Counter-ions that a name gives are not always drawn.
Readout type: AUC(0-inf) (ng·h/mL)
Your answer is read as ng·h/mL, so omit the unit and give the number.

// fetch AUC(0-inf) given entry CN[C@@H](C)[C@@H](O)c1ccccc1 [Pseudoephedrine, Pseudoephedrine hydrochloride] 4430

###

experiment: Example 16: interaction potential, Mucinex and Sudafed 12 Hour alone or together, 3-way crossover; assay type: in vivo, human; conditions: human, in vivo, po, 120 mg, Pseudoephedrine AUCinf, median; Treatment C: 120 mg pseudoephedrine HCl along with 1200 mg guaifenesin (Sudafed 12 Hour + Mucinex), overnight fast
Where a name gives a salt, the structure may show the parent alone.
Readout type: AUC(0-inf) (ng·h/mL)
Answer in ng·h/mL, number only, no unit symbol.

Look up AUC(0-inf) of CN[C@@H](C)[C@@H](O)c1ccccc1 [Pseudoephedrine, Pseudoephedrine hydrochloride] and report it. 4250

###

experiment: clinical; details: human, in vivo, 1200 mg, Guaifenesin Cmax
Readout type: Cmax (ng/mL)
Just the number in ng/mL, nothing appended.

Return Cmax (reported value) for this compound: COc1ccccc1OCC(O)CO (stereo not shown) 1920

###

experiment: Example 16: interaction potential, Mucinex and Sudafed 12 Hour alone or together, 3-way crossover; format: in vivo, human; conditions: human, in vivo, po, 120 mg, Pseudoephedrine Tmax, mean; Treatment B: 120 mg pseudoephedrine HCl alone (Sudafed 12 Hour), overnight fast
Structures can show the parent of a compound that is named as a salt.
Readout type: Tmax

For CN[C@@H](C)[C@@H](O)c1ccccc1 [Pseudoephedrine, Pseudoephedrine hydrochloride] , write its Tmax. 6.17 h

###

assay: Example 16: interaction potential, Mucinex and Sudafed 12 Hour alone or together, 3-way crossover; type: in vivo, human; details: human, in vivo, po, 120 mg, Pseudoephedrine AUC0-t, median; Treatment B: 120 mg pseudoephedrine HCl alone (Sudafed 12 Hour), overnight fast
Counter-ions that a name gives are not always drawn.
Readout type: AUC(0-t) (ng·h/mL)
Entry rule: numbers only, all in ng·h/mL.

Could you please provide reported AUC(0-t) for CN[C@@H](C)[C@@H](O)c1ccccc1 [Pseudoephedrine, Pseudoephedrine hydrochloride] ? Thanks! 3820

###

assay: clinical; type: in vivo, human; conditions: human, in vivo, 1200 mg, Guaifenesin Clearance
Readout type: clearance (mL/min)
Give just the number in mL/min; leave the unit off.

Specify clearance for COc1ccccc1OCC(O)CO (stereo not shown) [Guaifenesin, 3-(2-methoxyphenoxy)-1,2-propanediol] and stop. 2750

###

experiment: Example 16: interaction potential, Mucinex and Sudafed 12 Hour alone or together, 3-way crossover; format: in vivo, human; details: human, in vivo, po, 120 mg, Pseudoephedrine Half-life, median; Treatment C: 120 mg pseudoephedrine HCl along with 1200 mg guaifenesin (Sudafed 12 Hour + Mucinex), overnight fast
Counter-ions that a name gives are not always drawn.
Readout type: half-life (h)
Kindly provide the numeric value in h only, without the unit symbol.

Indicate the recorded half-life value for this compound: CN[C@@H](C)[C@@H](O)c1ccccc1 [Pseudoephedrine, Pseudoephedrine hydrochloride] 5.63

###

assay: Example 16: interaction potential, Mucinex and Sudafed 12 Hour alone or together, 3-way crossover; assay type: in vivo, human; conditions: human, in vivo, po, 120 mg, Pseudoephedrine Tmax, median; Treatment C: 120 mg pseudoephedrine HCl along with 1200 mg guaifenesin (Sudafed 12 Hour + Mucinex), overnight fast
Counter-ions that a name gives are not always drawn.
Readout type: Tmax (h)
Supply the numeric figure in h, leaving out any unit text.

Look up and state reported Tmax for CN[C@@H](C)[C@@H](O)c1ccccc1 [Pseudoephedrine, Pseudoephedrine hydrochloride] 6

###

assay: clinical; conditions: human, in vivo, 1200 mg, Guaifenesin AUC0-t
Readout type: AUC(0-t)
# answer = value followed by unit

Note AUC(0-t) for the compound shown: COc1ccccc1OCC(O)CO (stereo not shown) [Guaifenesin, 3-(2-methoxyphenoxy)-1,2-propanediol] 8350 ng·h/mL

###

test: Example 16: interaction potential, Mucinex and Sudafed 12 Hour alone or together, 3-way crossover; format: in vivo, human; conditions: human, in vivo, po, 120 mg, Pseudoephedrine Tmax, median; Treatment B: 120 mg pseudoephedrine HCl alone (Sudafed 12 Hour), overnight fast
Structures can show the parent of a compound that is named as a salt.
Readout type: Tmax (h)
Please respond with the number in h and leave the unit unwritten.

Please look at this compound and report its Tmax: CN[C@@H](C)[C@@H](O)c1ccccc1 [Pseudoephedrine, Pseudoephedrine hydrochloride] 6

###

assay: Example 16: interaction potential, Mucinex and Sudafed 12 Hour alone or together, 3-way crossover; format: in vivo, human; conditions: human, in vivo, po, 120 mg, Pseudoephedrine Cmax, mean; Treatment C: 120 mg pseudoephedrine HCl along with 1200 mg guaifenesin (Sudafed 12 Hour + Mucinex), overnight fast
Structures can show the parent of a compound that is named as a salt.
Readout type: Cmax (ng/mL)
I only need the number, in ng/mL, no unit after it.

Return the recorded Cmax value; entry: CN[C@@H](C)[C@@H](O)c1ccccc1 [Pseudoephedrine, Pseudoephedrine hydrochloride] 289

###

experiment: clinical; details: human, in vivo, 1200 mg, Guaifenesin AUCinf
Readout type: AUC(0-inf) (ng·h/mL)
Please respond with the number in ng·h/mL and leave the unit unwritten.

Report measured AUC(0-inf); entry is COc1ccccc1OCC(O)CO (stereo not shown) 8830
